- System: Escherichia coli
- assay.name: Antibacterial activity against gram-negative wild type Escherichia coli MG1655 by CLSI broth microdilution method
- Type: functional
Exercise: state measured MIC for each of the molecules provided.

Exercise: Which measured MIC value corresponds to CC(=O)NC[C@H]1CN(c2ccc(-c3ccc(C#N)c(O)c3)c(F)c2)C(=O)O1 ?
Solution: > 256 µg/mL

Exercise: Which measured MIC value corresponds to CCOc1cnnn1C[C@H]1CN(c2ccc(-c3ccc(CN)cc3)c(F)c2)C(=O)O1 ?
Solution: > 256 µg/mL

Exercise: Which measured MIC value corresponds to CC(=O)NC[C@H]1CN(c2ccc(-c3cnc(C#N)c(O)c3)c(F)c2)C(=O)O1 ?
Solution: > 256 µg/mL

Exercise: Which measured MIC value corresponds to CCOc1cn(C[C@H]2CN(c3ccc(-c4ccc(CN)cc4)c(F)c3)C(=O)O2)nn1 ?
Solution: > 64 µg/mL

Exercise: Which measured MIC value corresponds to COc1cc(N2C[C@H](CO)OC2=O)ccc1-c1ccc(CN)cc1 ?
Solution: > 256 µg/mL

Exercise: Which measured MIC value corresponds to CC(=O)NC[C@H]1CN(c2ccc(-c3ccc(CN)c(O)c3)c(F)c2)C(=O)O1 ?
Solution: 128 µg/mL

###

Exercise: state measured Ratio for each of the molecules provided.
- Test system: Escherichia coli
- assay.name: Efflux index, ratio of MIC for wild type Escherichia coli MG1655 to MIC for Escherichia coli MG1655 expressing AcrAB-TolC efflux pump deletion mutant
- Format: functional
Keep the answer to the number alone.

Exercise: Which measured Ratio value corresponds to O=C1O[C@@H](CO)CN1c1ccc(-c2ccc([N+](=O)[O-])c(O)c2)c(F)c1 ?
Solution: 1

Exercise: Which measured Ratio value corresponds to NCc1ncc(-c2ccc(N3C[C@H](CO)OC3=O)cc2F)cc1O ?
Solution: 1.6

Exercise: Which measured Ratio value corresponds to NCc1ccc(-c2ccc(N3C[C@H](CO)OC3=O)cc2F)cc1O ?
Solution: 10.2

Exercise: Which measured Ratio value corresponds to NC[C@H]1CN(c2ccc(-c3ccc(F)c(O)c3)c(F)c2)C(=O)O1 ?
Solution: 1

Exercise: Which measured Ratio value corresponds to NCc1ccc(-c2ccc(N3C[C@H](CNC(=O)C(F)(F)F)OC3=O)cc2F)cc1 ?
Solution: 32

Exercise: Which measured Ratio value corresponds to CC(=O)NC[C@H]1CN(c2ccc(-c3ccnc(N)c3)c(F)c2)C(=O)O1 ?
Solution: 16

Exercise: Which measured Ratio value corresponds to NCc1cc(F)c(-c2ccc(N3C[C@H](CO)OC3=O)cc2F)cc1O ?
Solution: 1

Exercise: Which measured Ratio value corresponds to N/C(=N\O)c1ccc(-c2ccc(N3C[C@H](CO)OC3=O)cc2F)cc1O ?
Solution: 1

Exercise: Which measured Ratio value corresponds to NCc1ccc(-c2ccc(N3C[C@H](CNC(=O)C(F)F)OC3=O)cc2F)cc1 ?
Solution: 32

###

Exercise: state measured MIC for each of the compounds provided.
- System: Escherichia coli
- assay.name: Antibacterial activity against gram-negative wild type Escherichia coli MG1655 by CLSI broth microdilution method
- Format: functional

Exercise: Which measured MIC value corresponds to NCCC#Cc1ccc(N2C[C@H](CO)OC2=O)cc1F ?
Solution: > 256 µg/mL

Exercise: Which measured MIC value corresponds to O=C1O[C@@H](CO)CN1c1ccc(-c2ccc(F)c(O)c2)[n+]([O-])c1 ?
Solution: > 256 µg/mL

Exercise: Which measured MIC value corresponds to N#Cc1cc(O)cc(-c2ccc(N3C[C@H](Cn4ccnn4)OC3=O)cc2F)c1 ?
Solution: > 256 µg/mL

Exercise: Which measured MIC value corresponds to O=C1O[C@@H](CO)CN1c1ccc(-c2cc(O)c(F)cc2F)cc1 ?
Solution: > 256 µg/mL

Exercise: Which measured MIC value corresponds to CC(=O)NC[C@H]1CN(c2ccc(-c3ccnc(N)c3)c(F)c2)C(=O)O1 ?
Solution: 128 µg/mL

Exercise: Which measured MIC value corresponds to COc1ccccc1-c1ccc(N2C[C@H](CO)OC2=O)cc1 ?
Solution: > 64 µg/mL

Exercise: Which measured MIC value corresponds to O=C1O[C@@H](CO)CN1c1ccc(O)c(F)c1 ?
Solution: > 256 µg/mL

Exercise: Which measured MIC value corresponds to NCc1ccc(-c2ccc(N3C[C@H](Cn4cc(O)nn4)OC3=O)cc2F)cc1 ?
Solution: > 64 µg/mL

Exercise: Which measured MIC value corresponds to N/C(=N\O)c1ccc(-c2ccc(N3C[C@H](CNC(=O)C(F)(F)F)OC3=O)cc2F)cc1 ?
Solution: > 256 µg/mL

Exercise: Which measured MIC value corresponds to N#Cc1cc(O)cc(-c2ccc(N3C[C@H](Cn4nccn4)OC3=O)cc2F)c1 ?
Solution: > 256 µg/mL

Exercise: Which measured MIC value corresponds to NCc1ncc(-c2ccc(N3C[C@H](CO)OC3=O)cc2F)cc1O ?
Solution: 51 µg/mL

###

- System: Escherichia coli
- assay.name: Antibacterial activity against gram-negative wild type Escherichia coli MG1655 by CLSI broth microdilution method
- Format: functional
Exercise: state measured MIC for each of the molecules provided.

Exercise: Which measured MIC value corresponds to NCc1ccc(-c2ccc(N3C[C@H](Cn4cc(CN)nn4)OC3=O)cc2F)cc1 ?
Solution: > 256 µg/mL

Exercise: Which measured MIC value corresponds to N/C(=N\O)c1ccc(-c2ccc(N3C[C@H](CNC(=O)C(F)(F)F)OC3=O)cc2F)cc1O ?
Solution: > 256 µg/mL

Exercise: Which measured MIC value corresponds to O=C(O)c1ccc(N2C[C@H](CO)OC2=O)cc1F ?
Solution: > 256 µg/mL

Exercise: Which measured MIC value corresponds to O=C1O[C@@H](CO)CN1c1ccc(O)cc1F ?
Solution: > 256 µg/mL

Exercise: Which measured MIC value corresponds to Nc1cc(-c2ccc(N3C[C@H](CNC(=O)C(F)(F)F)OC3=O)cc2F)ccn1 ?
Solution: > 32 µg/mL

###

- Test system: Escherichia coli
- assay.name: Antibacterial activity against gram-negative wild type Escherichia coli MG1655 by CLSI broth microdilution method
- Format: functional
readout.type: MIC

Exercise: Which measured MIC value corresponds to NCc1ccc(-c2ccc(N3C[C@H](C(N)=O)OC3=O)cc2F)cc1 ?
Solution: > 256 µg/mL

Exercise: Which measured MIC value corresponds to CC(=O)NC[C@H]1CN(c2ccc(-c3ccc(CN)cc3)c(F)c2)C(=O)O1 ?
Solution: 64 µg/mL

Exercise: Which measured MIC value corresponds to N/C(=N\O)c1ccc(-c2ccc(N3C[C@H](CO)OC3=O)cc2)cc1 ?
Solution: > 256 µg/mL

Exercise: Which measured MIC value corresponds to O=C1O[C@@H](CO)CN1c1ccc(-c2ccccc2F)cc1 ?
Solution: > 64 µg/mL

Exercise: Which measured MIC value corresponds to N/C(=N\O)c1ccc(-c2ccc(N3C[C@H](CO)OC3=O)cc2F)cn1 ?
Solution: > 256 µg/mL

Exercise: Which measured MIC value corresponds to NCc1ccc(-c2ccc(N3C[C@H](Cn4nc[nH]c4=O)OC3=O)cc2F)cc1 ?
Solution: > 64 µg/mL

Exercise: Which measured MIC value corresponds to NCc1ccc(-c2ccc(N3C[C@H](CNC(=O)C(F)F)OC3=O)cc2F)cc1 ?
Solution: 128 µg/mL

Exercise: Which measured MIC value corresponds to NCc1ccc(-c2ccc(N3C[C@H](C(=O)O)OC3=O)cc2F)cc1 ?
Solution: > 256 µg/mL

Exercise: Which measured MIC value corresponds to COc1ccc(N2C[C@H](CO)OC2=O)cc1O ?
Solution: > 256 µg/mL

Exercise: Which measured MIC value corresponds to O=C1O[C@@H](CNC(=O)C(F)(F)F)CN1c1ccc(-c2ccc(F)c(O)c2)c(F)c1 ?
Solution: > 256 µg/mL

###

- Test system: Escherichia coli
- assay.name: Antibacterial activity against gram-negative wild type Escherichia coli MG1655 by CLSI broth microdilution method
- Format: functional
Exercise: state measured MIC for each of the compounds provided.
Answer in µg/mL, number only, no unit symbol.

Exercise: Which measured MIC value corresponds to NC[C@H]1CN(c2ccc(-c3ccc(F)c(O)c3)c(F)c2)C(=O)O1 ?
Solution: 256

Exercise: Which measured MIC value corresponds to NCc1ccc(-c2ccc(N3C[C@H](CNC(=O)C(F)(F)F)OC3=O)cc2F)cc1 ?
Solution: 64

Exercise: Which measured MIC value corresponds to NCc1ccc(-c2ccc(N3C[C@H](Cn4cc(CO)nn4)OC3=O)cc2F)cc1 ?
Solution: 256

Exercise: Which measured MIC value corresponds to CC(=O)NC[C@H]1CN(c2ccc(N3CCOCC3)c(F)c2)C(=O)O1 [LINEZOLID] ?
Solution: 130

###

- System: Escherichia coli
- assay.name: Antibacterial activity against gram-negative Escherichia coli MG1655 membrane permeabilized mutant in presence of polymyxinnonapeptide by CLSI broth microdilution method
- Assay type: functional
Under this convention, Satisfied denotes MIC strictly below 60 µg/mL and Not satisfied denotes MIC at or above 60 µg/mL.

Exercise: Dear colleague, could you confirm whether MIC of O=C1O[C@@H](CO)CN1c1ccc(-c2cc(O)c(F)cc2F)cc1 falls below 60 µg/mL? Thanks.
Solution: Not satisfied

Exercise: Dear colleague, could you confirm whether MIC of CCOc1cnnn1C[C@H]1CN(c2ccc(-c3ccc(CN)cc3)c(F)c2)C(=O)O1 falls below 60 µg/mL? Thanks.
Solution: Not satisfied

Exercise: Dear colleague, could you confirm whether MIC of NCc1ccc(-c2ccc(N3C[C@H](Cn4cc(CO)nn4)OC3=O)cc2F)cc1 falls below 60 µg/mL? Thanks.
Solution: Not satisfied

Exercise: Dear colleague, could you confirm whether MIC of N#Cc1cc(O)cc(-c2ccc(N3C[C@H](Cn4ccnn4)OC3=O)cc2F)c1 falls below 60 µg/mL? Thanks.
Solution: Not satisfied

Exercise: Dear colleague, could you confirm whether MIC of NCc1ccc(-c2ccc(N3C[C@H](CNC(=O)C(F)F)OC3=O)cc2F)cc1 falls below 60 µg/mL? Thanks.
Solution: Satisfied

Exercise: Dear colleague, could you confirm whether MIC of CC(=O)NC[C@H]1CN(c2ccc(N3CCOCC3)c(F)c2)C(=O)O1 falls below 60 µg/mL? Thanks.
Solution: Satisfied

Exercise: Dear colleague, could you confirm whether MIC of NC[C@H]1CN(c2ccc(-c3ccc(F)c(O)c3)c(F)c2)C(=O)O1 falls below 60 µg/mL? Thanks.
Solution: Not satisfied

Exercise: Dear colleague, could you confirm whether MIC of Nc1cc(-c2ccc(N3C[C@H](CNC(=O)C(F)(F)F)OC3=O)cc2F)ccn1 falls below 60 µg/mL? Thanks.
Solution: Satisfied

Exercise: Dear colleague, could you confirm whether MIC of CC(=O)NC[C@H]1CN(c2ccc(-c3ccnc(N)c3)c(F)c2)C(=O)O1 falls below 60 µg/mL? Thanks.
Solution: Satisfied

Exercise: Dear colleague, could you confirm whether MIC of O=C1CCc2cc(-c3ccc(N4C[C@H](CO)OC4=O)cc3F)cc(O)c21 falls below 60 µg/mL? Thanks.
Solution: Not satisfied

Exercise: Dear colleague, could you confirm whether MIC of NCc1ccc(-c2ccc(N3C[C@H](Cn4cc(CN)nn4)OC3=O)cc2F)cc1 falls below 60 µg/mL? Thanks.
Solution: Not satisfied

Exercise: Dear colleague, could you confirm whether MIC of N/C(=N\O)c1ccc(-c2ccc(N3C[C@H](CNC(=O)C(F)(F)F)OC3=O)cc2F)cc1 falls below 60 µg/mL? Thanks.
Solution: Satisfied

Exercise: Dear colleague, could you confirm whether MIC of CC(=O)NC[C@H]1CN(c2ccc(-c3ccc(CN)cc3)c(F)c2)C(=O)O1 falls below 60 µg/mL? Thanks.
Solution: Satisfied

Exercise: Dear colleague, could you confirm whether MIC of N#Cc1cc(O)cc(-c2ccc(N3C[C@H](Cn4nccn4)OC3=O)cc2F)c1 falls below 60 µg/mL? Thanks.
Solution: Not satisfied

Exercise: Dear colleague, could you confirm whether MIC of CC(=O)NC[C@H]1CN(c2ccc(-c3ccc(C#N)c(O)c3)c(F)c2)C(=O)O1 falls below 60 µg/mL? Thanks.
Solution: Satisfied

Exercise: Dear colleague, could you confirm whether MIC of O=C1O[C@@H](CO)CN1c1ccc(-c2cc(O)ccc2F)cc1 falls below 60 µg/mL? Thanks.
Solution: Satisfied

Exercise: Dear colleague, could you confirm whether MIC of O=C(NC[C@H]1CN(c2ccc(-c3ccc(F)c(O)c3)c(F)c2)C(=O)O1)C(F)F falls below 60 µg/mL? Thanks.
Solution: Satisfied

Exercise: Dear colleague, could you confirm whether MIC of CC(=O)NC[C@H]1CN(c2ccc(-c3ccc(F)c(O)c3)c(F)c2)C(=O)O1 falls below 60 µg/mL? Thanks.
Solution: Satisfied

Exercise: Dear colleague, could you confirm whether MIC of O=C1O[C@@H](CNC(=O)C(F)(F)F)CN1c1ccc(-c2ccc(F)c(O)c2)c(F)c1 falls below 60 µg/mL? Thanks.
Solution: Not satisfied

Exercise: Dear colleague, could you confirm whether MIC of N/C(=N\O)c1ccc(-c2ccc(N3C[C@H](CO)OC3=O)cc2)cc1 falls below 60 µg/mL? Thanks.
Solution: Satisfied

Exercise: Dear colleague, could you confirm whether MIC of N/C(=N\O)c1ccc(-c2ccc(N3C[C@H](CO)OC3=O)cc2F)cn1 falls below 60 µg/mL? Thanks.
Solution: Satisfied

Exercise: Dear colleague, could you confirm whether MIC of NCc1ccc(-c2ccc(N3C[C@H](CNC(=O)C(F)(F)F)OC3=O)cc2F)cc1 falls below 60 µg/mL? Thanks.
Solution: Satisfied

Exercise: Dear colleague, could you confirm whether MIC of CC(=O)NC[C@H]1CN(c2ccc(-c3ccc(CN)c(O)c3)c(F)c2)C(=O)O1 falls below 60 µg/mL? Thanks.
Solution: Not satisfied

These data points were gathered from ChEMBL document CHEMBL4177666.
